Target: STK38L (Homo sapiens, UniProt Q9Y2H1)
Construct: purchased in-house DSF panel (SGC Frankfurt)
Sequence (Q9Y2H1 90-453): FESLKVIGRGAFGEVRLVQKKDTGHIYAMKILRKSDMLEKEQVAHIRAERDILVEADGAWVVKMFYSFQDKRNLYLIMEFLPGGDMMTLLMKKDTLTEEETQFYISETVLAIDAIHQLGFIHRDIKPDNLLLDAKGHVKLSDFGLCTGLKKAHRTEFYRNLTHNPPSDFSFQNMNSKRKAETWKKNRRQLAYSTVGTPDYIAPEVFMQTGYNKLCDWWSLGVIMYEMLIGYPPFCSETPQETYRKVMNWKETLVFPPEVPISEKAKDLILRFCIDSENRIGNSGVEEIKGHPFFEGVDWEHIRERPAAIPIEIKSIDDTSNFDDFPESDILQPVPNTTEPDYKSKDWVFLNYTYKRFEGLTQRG
Assay: DSF
Assay type: binding
Test readout: ΔTm STK38L (°C)

Compound	Number
N#CCc1ccc(Nc2nccc(Nc3cc(C4CC4)[nH]n3)n2)cc1 [compound 1, reference compound]	8.7
COC(=O)c1cc(Nc2ccnc(NCCOCCNC(=O)OC(C)(C)C)n2)[nH]n1 [21d]	1.2
CC(C)(C)OC(=O)Nc1ccc(CNc2nccc(Nc3cc(C(=O)OC(C)(C)C)[nH]n3)n2)cc1 [43d]	0.0

[1] CC(C)OC(=O)c1cc(Nc2ccnc(NCc3ccc(NC(=O)OC(C)(C)C)cc3)n2)n[nH]1 [42d]
[2] COC(=O)c1cc(Nc2ccnc(NCc3ccc(NC(=O)OC(C)(C)C)cc3)n2)[nH]n1 [21i]
## Input Of 1 and 2 , whose reported ΔTm STK38L is numerically smaller? Field: selected label. Fill in the label of the entry you choose.
## Output 1
(1: 0.0 °C, 2: 0.9 °C)

Numbers sourced from paper PMC9736855.
